Biological target: Purine nucleoside phosphorylase (Bos taurus, UniProt P55859, F200W)
Sequence (P55859 whole entry F200W): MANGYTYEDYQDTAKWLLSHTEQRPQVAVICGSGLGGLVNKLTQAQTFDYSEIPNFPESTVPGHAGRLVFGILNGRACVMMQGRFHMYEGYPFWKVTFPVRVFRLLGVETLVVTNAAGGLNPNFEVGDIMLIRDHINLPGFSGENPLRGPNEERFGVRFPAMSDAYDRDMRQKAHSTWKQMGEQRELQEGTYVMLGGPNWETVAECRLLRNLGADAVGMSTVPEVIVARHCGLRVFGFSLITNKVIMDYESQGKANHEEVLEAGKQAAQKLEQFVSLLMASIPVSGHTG
Experiment: Binding affinity to calf recombinant PNP Phe200Trp mutant expressed in Escherichia coli BL21 (DE3) by competitive binding fluorimetric analysis in presence of DFPP-DG
experimental_readout: pKd
Remember the convention: pKd equals -log10 of concentration in molar.

Prompt: Recall the recorded pKd for `C[C@@H](Cn1cnc2c(N)nc(N)nc21)OCP(=O)(O)O` with Purine nucleoside phosphorylase (Bos taurus, UniProt P55859, F200W) and state it.
Response: 6.07

----------
Molecular target: Purine nucleoside phosphorylase (Bos taurus, UniProt P55859)
Experiment: Binding affinity to calf recombinant PNP expressed in Escherichia coli BL21 (DE3) by fluorimetric titration analysis
experimental_readout: pKd
Just the number, please; pKd means minus log10 of the concentration in mol/L.

Nc1nc2nc[nH]c2c(=O)[nH]1; 6.80

Now, please, on to the next molecule.
Prompt: # get_value(readout= pKd, system= Purine nucleoside phosphorylase (Bos taurus, UniProt P55859)) for `Nc1nc2cc[nH]c2c(=O)[nH]1`
Response: 6.77

----------
Target: Purine nucleoside phosphorylase (Bos taurus, UniProt P55859)
Test: Binding affinity to calf recombinant PNP expressed in Escherichia coli BL21 (DE3) by isothermal titration calorimetry/ fluorimetric titration analysis
experimental_readout: pKd
pKd here is simply -log10 of the concentration when that concentration is written in mol/L.

Prompt: Item: `Nc1nc2c(CNCCC(F)(F)P(=O)(O)O)c[nH]c2c(=O)[nH]1` Test system: Purine nucleoside phosphorylase (Bos taurus, UniProt P55859) Read-out: pKd Value: ?
Response: 8.44

----------
Target chain: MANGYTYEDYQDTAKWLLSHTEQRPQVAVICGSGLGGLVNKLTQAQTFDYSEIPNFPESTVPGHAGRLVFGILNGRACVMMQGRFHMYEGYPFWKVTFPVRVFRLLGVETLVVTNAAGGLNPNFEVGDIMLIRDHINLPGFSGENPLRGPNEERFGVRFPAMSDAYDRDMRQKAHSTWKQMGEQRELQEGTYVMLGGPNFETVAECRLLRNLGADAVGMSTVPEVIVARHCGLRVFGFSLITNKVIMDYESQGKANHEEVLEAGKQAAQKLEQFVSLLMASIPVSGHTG
experimental_readout: Kieq
Please answer in the form of a number followed by its unit of measurement.

Examples with answers:
Nc1nc2cc[nH]c2c(=O)[nH]1; 7.4 µM
Nc1nc2c(CNCCC(F)(F)P(=O)(O)O)c[nH]c2c(=O)[nH]1; 0.0068 µM
O=c1[nH]cnc2nc[nH]c12; 2.5 µM

Prompt: Give its Kieq value. Item: `Nc1nc2[nH]cnc2c(=O)[nH]1`
Response: 4 µM

Prompt: `C[C@@H](Cn1cnc2c(N)nc(N)nc21)OCP(=O)(O)O` , same question.
Response: 6 µM

----------
Biological target: Purine nucleoside phosphorylase (Bos taurus, UniProt P55859, F159W)
Sequence (P55859 whole entry F159W): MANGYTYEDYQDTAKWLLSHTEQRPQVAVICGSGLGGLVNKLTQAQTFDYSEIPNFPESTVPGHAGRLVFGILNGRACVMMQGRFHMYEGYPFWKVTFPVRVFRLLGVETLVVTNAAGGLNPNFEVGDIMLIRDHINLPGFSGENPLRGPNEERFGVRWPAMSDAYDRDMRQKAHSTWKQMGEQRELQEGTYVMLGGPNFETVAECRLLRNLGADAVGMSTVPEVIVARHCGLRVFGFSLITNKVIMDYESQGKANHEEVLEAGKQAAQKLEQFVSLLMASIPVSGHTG
Experiment: Binding affinity to calf recombinant PNP Phe159Trp mutant expressed in Escherichia coli BL21 (DE3) by fluorimetric titration analysis
experimental_readout: pKd
API: returns pKd as number; meaning -log10 of concentration in mol/L.

Prompt: Quick one: pKd for Nc1nc2nc[nH]c2c(=O)[nH]1 [GUANINE] ?
Response: 5.48
